# EXPERIMENTAL TARGET: pre-existing anti-scFv903 antibodies in human serum H115 (human)
# PROTOCOL NOTES: competition ADA bridging ELISA
Quick list: signal change in competition ELISA (% reduction in OD) per entry.
Could you give me the number in %? Just the number is fine.

scFv 903 (scFv) scFv: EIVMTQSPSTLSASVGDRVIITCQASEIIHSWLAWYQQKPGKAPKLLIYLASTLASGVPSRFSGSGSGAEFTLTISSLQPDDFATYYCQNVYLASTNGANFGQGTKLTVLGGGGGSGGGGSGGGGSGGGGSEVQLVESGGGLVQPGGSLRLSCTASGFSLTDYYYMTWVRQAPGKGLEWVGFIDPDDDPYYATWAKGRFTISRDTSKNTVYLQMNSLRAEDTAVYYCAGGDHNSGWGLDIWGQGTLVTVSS    -95
scFv105 (scFv) scFv: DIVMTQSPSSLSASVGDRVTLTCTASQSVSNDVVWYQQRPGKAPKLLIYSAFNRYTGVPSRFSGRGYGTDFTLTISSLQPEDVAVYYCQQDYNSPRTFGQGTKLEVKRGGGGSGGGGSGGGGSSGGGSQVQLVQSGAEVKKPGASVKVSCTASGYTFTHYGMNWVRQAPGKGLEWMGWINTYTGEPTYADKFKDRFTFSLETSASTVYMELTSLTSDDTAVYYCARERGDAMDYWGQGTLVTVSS    -60
scFv 961 (scFv) scFv: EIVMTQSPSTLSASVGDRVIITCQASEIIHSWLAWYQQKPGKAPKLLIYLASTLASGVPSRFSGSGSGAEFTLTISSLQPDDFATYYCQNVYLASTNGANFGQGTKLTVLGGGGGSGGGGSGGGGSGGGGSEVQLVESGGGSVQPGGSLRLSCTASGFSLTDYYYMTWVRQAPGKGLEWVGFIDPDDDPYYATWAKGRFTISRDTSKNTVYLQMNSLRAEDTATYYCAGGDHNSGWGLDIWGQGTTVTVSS    -31

Turning now to a further record.
The reported value for scFv 791 (scFv) scFv: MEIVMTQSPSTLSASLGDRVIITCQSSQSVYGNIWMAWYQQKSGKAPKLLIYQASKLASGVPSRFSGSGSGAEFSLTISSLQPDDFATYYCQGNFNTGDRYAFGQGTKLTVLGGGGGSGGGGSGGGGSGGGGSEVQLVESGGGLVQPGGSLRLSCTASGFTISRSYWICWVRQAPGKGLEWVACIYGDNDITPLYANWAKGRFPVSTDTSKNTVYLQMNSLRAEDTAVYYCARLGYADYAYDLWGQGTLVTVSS in terms of signal change in competition ELISA (% reduction in OD) is -95
